# study_target: UniProtKB P08842
# run_description: STS inhibition in placental microsomes
# Format: biochemical
# Design: a placental microsomal preparation from a sulfatase-positive human placenta from a normal term pregnancy; from tissue; host or cells: human placenta (microsomal preparation)
# condition_set: 1 μM inhibitor; 20 μM E1S
readout_label: inhibition at 1 µM (%)
Entry rule: numbers only, all in %.

CCc1ccc(-c2cc(=O)oc3cc(OS(N)(=O)=O)ccc23)cc1 [compound 25, 4-(4-Ethylphenyl)coumarin-7-O-sulfamate]: 27
CC(C)c1cc(=O)oc2cc(OS(N)(=O)=O)ccc12 [compound 19, 4-(Prop-2-yl)coumarin-7-O-sulfamate]: 90
CCCCCCCCCc1cc(=O)oc2cc(OS(N)(=O)=O)ccc12 [compound 14, 4-Nonylcoumarin-7-O-sulfamate]: 97
Cc1c(CCCc2ccccc2)c(=O)oc2cc(OS(N)(=O)=O)ccc12 [compound 43]: 99
NS(=O)(=O)Oc1ccc2c(Cc3ccccc3)cc(=O)oc2c1 [compound 23, 4-Benzylcoumarin-7-O-sulfamate]: 96
CCCCCc1c(C)c2ccc(OS(N)(=O)=O)cc2oc1=O [compound 28, 4-Methyl-3-pentylcoumarin-7-O-sulfamate]: 99
Cc1c(Cc2ccccc2)c(=O)oc2cc(OS(N)(=O)=O)ccc12 [compound 41, 3-Benzyl-4-methylcoumarin-7-O-sulfamate]: 99
CCCCCCCCCCCc1cc(=O)oc2cc(OS(N)(=O)=O)ccc12 [compound 16, 4-Undecylcoumarin-7-O-sulfamate]: 92
CCCCCCCc1cc(=O)oc2cc(OS(N)(=O)=O)ccc12 [compound 12, 4-Heptylcoumarin-7-O-sulfamate]: 97
CCCCCCCCCc1c(C)c2ccc(OS(N)(=O)=O)cc2oc1=O [compound 32, 4-Methyl-3-nonylcoumarin-7-O-sulfamate]: 97

Briefly, inhibition at 1 µM measured for Cc1c(CCC2CCCCC2)c(=O)oc2cc(OS(N)(=O)=O)ccc12 [compound 45] : 99

Briefly, inhibition at 1 µM measured for CCCCCCc1c(C)c2ccc(OS(N)(=O)=O)cc2oc1=O [compound 29, 3-Hexyl-4-methylcoumarin-7-O-sulfamate] : 99

Briefly, inhibition at 1 µM measured for CCCCCCCCCCc1cc(=O)oc2cc(OS(N)(=O)=O)ccc12 [compound 15, 4-Decylcoumarin-7-O-sulfamate] : 96

Briefly, inhibition at 1 µM measured for CCCCc1cc(=O)oc2cc(OS(N)(=O)=O)ccc12 [compound 9, 4-Butylcoumarin-7-O-sulfamate] : 91

Briefly, inhibition at 1 µM measured for CCCCCCCCCCc1c(C)c2ccc(OS(N)(=O)=O)cc2oc1=O [compound 33, 3-Decyl-4-methylcoumarin-7-O-sulfamate] : 79

Briefly, inhibition at 1 µM measured for CCCCCCCCc1c(C)c2ccc(OS(N)(=O)=O)cc2oc1=O [compound 31, 4-Methyl-3-octylcoumarin-7-O-sulfamate] : 98

====

# study_target: steroid sulfatase (STS) (Homo sapiens, UniProt P08842)
# Sequence (P08842 22-583): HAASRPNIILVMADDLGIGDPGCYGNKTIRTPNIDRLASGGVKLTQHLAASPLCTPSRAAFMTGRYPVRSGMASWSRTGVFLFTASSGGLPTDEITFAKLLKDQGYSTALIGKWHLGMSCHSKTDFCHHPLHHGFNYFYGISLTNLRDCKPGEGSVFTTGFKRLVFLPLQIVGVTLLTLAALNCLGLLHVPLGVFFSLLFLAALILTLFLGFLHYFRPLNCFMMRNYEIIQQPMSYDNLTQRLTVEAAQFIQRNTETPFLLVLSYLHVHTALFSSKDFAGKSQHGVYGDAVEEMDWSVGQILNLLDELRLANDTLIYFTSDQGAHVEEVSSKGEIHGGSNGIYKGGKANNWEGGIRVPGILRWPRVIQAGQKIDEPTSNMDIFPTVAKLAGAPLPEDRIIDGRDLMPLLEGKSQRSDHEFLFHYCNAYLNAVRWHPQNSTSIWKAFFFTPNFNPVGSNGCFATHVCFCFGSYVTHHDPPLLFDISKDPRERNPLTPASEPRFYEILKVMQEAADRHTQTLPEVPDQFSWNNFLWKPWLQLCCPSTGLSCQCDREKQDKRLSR
# run_description: STS inhibition in placental microsomes
# Assay type: biochemical
# Parameters: a placental microsomal preparation from a sulfatase-positive human placenta from a normal term pregnancy; from tissue; host or cells: human placenta (microsomal preparation)
# condition_set: 0.1 μM inhibitor; 20 μM E1S
The entries below come with measured inhibition at 0.1 µM values attached.
Entry rule: numbers only, all in %.

Completed entries (count: 3):
CCCCCCCCCCc1cc(=O)oc2cc(OS(N)(=O)=O)ccc12 [compound 15, 4-Decylcoumarin-7-O-sulfamate]: 74
CC(C)Cc1cc(=O)oc2cc(OS(N)(=O)=O)ccc12 [compound 20]: 19
NS(=O)(=O)Oc1ccc2c(Cc3ccccc3)cc(=O)oc2c1 [compound 23, 4-Benzylcoumarin-7-O-sulfamate]: 61

Now for the molecule whose inhibition at 0.1 µM we want.
Briefly, inhibition at 0.1 µM measured for NS(=O)(=O)Oc1ccc2c(CCc3ccccc3)cc(=O)oc2c1 [compound 24, 4-(2-Phenylethyl)coumarin-7-O-sulfamate] : 53

====

The entries below come with measured inhibition at 0.1 µM values attached.
# study_target: steroid sulfatase (STS) (Homo sapiens, UniProt P08842)
# run_description: STS inhibition in intact MCF-7 breast cancer cells
# Format: cell-based
# Design: endogenous in cells; host or cells: MCF-7 breast cancer cells
# condition_set: MCF7, read-out: % Inhibition of STS Activity in Intact MCF-7 Breast Cancer Cells at 0.1 μM
Entry rule: numbers only, all in %.

Completed entries (count: 5):
NS(=O)(=O)Oc1ccc2c(Cc3ccccc3)cc(=O)oc2c1 [compound 23, 4-Benzylcoumarin-7-O-sulfamate]: 55
CCCCCCCCc1cc(=O)oc2cc(OS(N)(=O)=O)ccc12 [compound 13, 4-Octylcoumarin-7-O-sulfamate]: 90
CCCCCCCCCCc1c(C)c2ccc(OS(N)(=O)=O)cc2oc1=O [compound 33, 3-Decyl-4-methylcoumarin-7-O-sulfamate]: 97
CCCCCCCCCCCCc1cc(=O)oc2cc(OS(N)(=O)=O)ccc12 [compound 17, 4-Dodecylcoumarin-7-O-sulfamate]: 67
CCCCCCCc1c(C)c2ccc(OS(N)(=O)=O)cc2oc1=O [compound 30, 3-Heptyl-4-methylcoumarin-7-O-sulfamate]: 99

Briefly, inhibition at 0.1 µM measured for CCCCCCCCCCCCCc1cc(=O)oc2cc(OS(N)(=O)=O)ccc12 [compound 18, 4-Tridecylcoumarin-7-O-sulfamate] : 96

Briefly, inhibition at 0.1 µM measured for NS(=O)(=O)Oc1ccc2c(C3CCCCC3)cc(=O)oc2c1 [compound 26, 4-Cyclohexylcoumarin-7-O-sulfamate] : 72

====

# study_target: UniProt P08842
# run_description: STS inhibition in placental microsomes
# Assay type: biochemical
# Parameters: a placental microsomal preparation from a sulfatase-positive human placenta from a normal term pregnancy; from tissue; host or cells: human placenta (microsomal preparation)
# condition_set: 0.1 μM inhibitor; 20 μM E1S
The entries below come with measured inhibition at 0.1 µM values attached.
Entry rule: numbers only, all in %.

CCCCCCCCCc1cc(=O)oc2cc(OS(N)(=O)=O)ccc12 [compound 14, 4-Nonylcoumarin-7-O-sulfamate]: 79

Considering CCCCCCCc1c(C)c2ccc(OS(N)(=O)=O)cc2oc1=O [compound 30, 3-Heptyl-4-methylcoumarin-7-O-sulfamate] , its inhibition at 0.1 µM with UniProt P08842 was recorded as 65

Considering Cc1c(-c2ccccc2)c(=O)oc2cc(OS(N)(=O)=O)ccc12 [compound 40, 4-Methyl-3-phenylcoumarin-7-O-sulfamate] , its inhibition at 0.1 µM with UniProt P08842 was recorded as 65

Considering NS(=O)(=O)Oc1ccc2c(C3CCCCC3)cc(=O)oc2c1 [compound 26, 4-Cyclohexylcoumarin-7-O-sulfamate] , its inhibition at 0.1 µM with UniProt P08842 was recorded as 69

Considering Cc1c(CCc2ccccc2)c(=O)oc2cc(OS(N)(=O)=O)ccc12 [compound 42] , its inhibition at 0.1 µM with UniProt P08842 was recorded as 91

Considering CCCCCCCCc1c(C)c2ccc(OS(N)(=O)=O)cc2oc1=O [compound 31, 4-Methyl-3-octylcoumarin-7-O-sulfamate] , its inhibition at 0.1 µM with UniProt P08842 was recorded as 71

Considering NS(=O)(=O)Oc1ccc2c(CC34CC5CC(CC(C5)C3)C4)cc(=O)oc2c1 [compound 27] , its inhibition at 0.1 µM with UniProt P08842 was recorded as 8

Considering CCCCc1cc(=O)oc2cc(OS(N)(=O)=O)ccc12 [compound 9, 4-Butylcoumarin-7-O-sulfamate] , its inhibition at 0.1 µM with UniProt P08842 was recorded as 49

Considering CCCCCCCc1cc(=O)oc2cc(OS(N)(=O)=O)ccc12 [compound 12, 4-Heptylcoumarin-7-O-sulfamate] , its inhibition at 0.1 µM with UniProt P08842 was recorded as 64

Considering Cc1c(CC2CCCCC2)c(=O)oc2cc(OS(N)(=O)=O)ccc12 [compound 44] , its inhibition at 0.1 µM with UniProt P08842 was recorded as 74

Considering CCCCCCCCCCCCCc1cc(=O)oc2cc(OS(N)(=O)=O)ccc12 [compound 18, 4-Tridecylcoumarin-7-O-sulfamate] , its inhibition at 0.1 µM with UniProt P08842 was recorded as 55

Considering Cc1c(Cc2ccccc2)c(=O)oc2cc(OS(N)(=O)=O)ccc12 [compound 41, 3-Benzyl-4-methylcoumarin-7-O-sulfamate] , its inhibition at 0.1 µM with UniProt P08842 was recorded as 94

Considering CCCCCc1c(C)c2ccc(OS(N)(=O)=O)cc2oc1=O [compound 28, 4-Methyl-3-pentylcoumarin-7-O-sulfamate] , its inhibition at 0.1 µM with UniProt P08842 was recorded as 94

Considering CCCCCCCCCCc1c(C)c2ccc(OS(N)(=O)=O)cc2oc1=O [compound 33, 3-Decyl-4-methylcoumarin-7-O-sulfamate] , its inhibition at 0.1 µM with UniProt P08842 was recorded as 33
